# PROTOCOL DESCRIPTION: Stability in liver microsomes
# Assay type: in vitro ADME
# MEASUREMENT CONDITIONS: Mouse liver microsomes 0.5 mg/mL, 1 µM compound, NADPH, 37 °C
Would you mind telling me the reported half-life at 1 µM of each entry?
Numbers only, in min.

COMPOUND: [2H]c1cc(CNC(=O)/C=C/c2cccnc2)ccc1C(=O)Nc1ccc(F)cc1N
half-life at 1 µM (min): 22.4

For each of the compounds below, state half-life at 1 µM.
1. [2H]c1ccc(/C=C/C(=O)NCc2ccc(C(=O)Nc3ccc(F)cc3N)cc2)cn1
2. [2H]c1ncccc1/C=C/C(=O)NCc1ccc(C(=O)Nc2ccc(F)cc2N)cc1
3. [2H]c1cc(C(=O)Nc2ccc(F)cc2N)ccc1CNC(=O)/C=C/c1cccnc1
4. [2H]c1cncc(/C=C/C(=O)NCc2ccc(C(=O)Nc3ccc(F)cc3N)cc2)c1

a:
1: 50.6; 2: 46.4; 3: 23.6; 4: 23.6

For each of the compounds below, state half-life at 1 µM.
1. Nc1cc(F)ccc1NC(=O)c1ccc(CNC(=O)/C=C/c2cccnc2)cc1 [Chidamide, reference compound]
2. [2H]/C(=C\C(=O)NCc1ccc(C(=O)Nc2ccc(F)cc2N)cc1)c1cccnc1

a:
1. 24.6
2. 19.1

----------
# PROTOCOL DESCRIPTION: Pharmacokinetic experiment in rats
# Type: in vivo
# MEASUREMENT CONDITIONS: female, rat, plasma, Injection (1 mg/kg), intravenous, read-out: Vdss
REPORTED METRIC: Vd (L/kg)
Give bare numbers, in L/kg.

q: Which measured Vd value corresponds to [2H]c1cc(C(=O)Nc2ccc(F)cc2N)ccc1CNC(=O)/C=C/c1cccnc1 ?
a: 2.42

----------
# PROTOCOL DESCRIPTION: Stability in liver microsomes
# Format: in vitro ADME
# MEASUREMENT CONDITIONS: Mouse liver microsomes 0.5 mg/mL, 1 µM compound, NADPH, 37 °C
# Description: After the 1 µM compound was incubated with 0.5 mg/mL of human or mouse liver microsomes and an NADPH regeneration system at 37 °C for different times, respectively, LC-MS-MS was used to analyze the remaining amount of the compound and calculate T1/2. Table 12. Evaluation results of stability of compounds of the present disclosure in human and mouse liver microsomes
Checkbox rule: CLint scaled at 1 µM lower than 200 mL/min/kg = true; CLint scaled at 1 µM not lower than 200 mL/min/kg = false.

Solved entries:
MOLECULE: [2H]c1cc(C(=O)Nc2ccc(F)cc2N)ccc1CNC(=O)/C=C/c1cccnc1 [Compound 5]
QUALITATIVE LABEL: false

MOLECULE: [2H]/C(=C\C(=O)NCc1ccc(C(=O)Nc2ccc(F)cc2N)cc1)c1cccnc1 [Compound 8]
QUALITATIVE LABEL: false

MOLECULE: [2H]c1ncccc1/C=C/C(=O)NCc1ccc(C(=O)Nc2ccc(F)cc2N)cc1 [Compound 9]
QUALITATIVE LABEL: true

MOLECULE: [2H]c1cncc(/C=C/C(=O)NCc2ccc(C(=O)Nc3ccc(F)cc3N)cc2)c1 [Compound 11]
QUALITATIVE LABEL: false

q: Dear reviewer, please state whether Nc1cc(F)ccc1NC(=O)c1ccc(CNC(=O)/C=C/c2cccnc2)cc1 [Chidamide, reference compound] has CLint scaled at 1 µM strictly beneath 200 mL/min/kg.
a: false

q: Moving on to the next molecule: [2H]c1cc(CNC(=O)/C=C/c2cccnc2)ccc1C(=O)Nc1ccc(F)cc1N [Compound 4]
a: false

q: Moving on to the next molecule: [2H]c1ccc(/C=C/C(=O)NCc2ccc(C(=O)Nc3ccc(F)cc3N)cc2)cn1 [Compound 12]
a: true
